biological target: Ribosomal protein S6 kinase alpha-4 (Homo sapiens) (UniProt O75676); settings: at 0.1 µM;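 further: values are mean inhibition of MSK2, from GSK PKIS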
Sequence (O75676 whole entry, looked up): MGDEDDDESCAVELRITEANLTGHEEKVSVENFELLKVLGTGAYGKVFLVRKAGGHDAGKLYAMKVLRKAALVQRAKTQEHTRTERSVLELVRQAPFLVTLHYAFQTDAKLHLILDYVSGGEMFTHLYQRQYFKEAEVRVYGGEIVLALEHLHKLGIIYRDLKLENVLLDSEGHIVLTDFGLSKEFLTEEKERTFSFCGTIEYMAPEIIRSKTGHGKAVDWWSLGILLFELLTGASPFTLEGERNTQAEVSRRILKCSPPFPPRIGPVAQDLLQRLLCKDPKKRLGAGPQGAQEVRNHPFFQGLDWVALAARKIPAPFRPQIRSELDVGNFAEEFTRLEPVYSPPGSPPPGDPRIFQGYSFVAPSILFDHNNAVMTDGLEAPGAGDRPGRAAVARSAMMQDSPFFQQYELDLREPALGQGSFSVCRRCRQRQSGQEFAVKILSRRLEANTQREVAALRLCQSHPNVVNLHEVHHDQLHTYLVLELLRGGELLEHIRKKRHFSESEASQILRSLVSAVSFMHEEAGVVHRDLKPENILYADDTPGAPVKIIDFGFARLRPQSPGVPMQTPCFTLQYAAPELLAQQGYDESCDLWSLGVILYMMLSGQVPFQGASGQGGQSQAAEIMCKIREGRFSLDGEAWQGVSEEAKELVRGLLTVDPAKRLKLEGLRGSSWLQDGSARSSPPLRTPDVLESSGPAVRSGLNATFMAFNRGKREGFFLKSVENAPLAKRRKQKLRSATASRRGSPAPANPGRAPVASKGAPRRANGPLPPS
Reported inhibition values are given for each entry in this list.
Give just the number in %; leave the unit off.

Use the examples below as a reference point.
> print(dat)
                               entry.smiles  assay.value
1  CCN1CCC(C(=O)Nc2n[nH]c3nnc(-c4cccc(F)c4F)cc23)CC1         0.41
2  NS(=O)(=O)c1ccc(N/N=C2\C(=O)Nc3cccc(CCc4ccncc4)c32)cc1         0.37
3  CS(=O)(=O)CCNCc1ccc(-c2ccc3ncnc(Nc4ccc(OCc5cccc(C(F)(F)F)c5)cc4)c3c2)o1         1.66
4  CCOc1ccc2c(-c3ccnc(Nc4cc(OC)cc(C(F)(F)F)c4)n3)cnn2n1         1.07
5  O=C(O[C@H]1CN[C@H](C#Cc2cc3ncnc(Nc4ccc(OCc5cccc(F)c5)c(Cl)c4)c3s2)C1)N1CCOCC1         2.64

Tell me reported inhibition for Fc1cccc(COc2ccc(Nc3ncncc3C#Cc3ccccc3)cc2Cl)c1 , tested with Ribosomal protein S6 kinase alpha-4 (Homo sapiens) (UniProt O75676).
2.46

Tell me reported inhibition for CC(C)c1ccc(-c2cc(-c3c[nH]nc3-c3ccccn3)ccn2)cc1 , tested with Ribosomal protein S6 kinase alpha-4 (Homo sapiens) (UniProt O75676).
1.53

Tell me reported inhibition for O=C(Nc1n[nH]c2nnc(-c3cccnc3)cc12)C1CC1 , tested with Ribosomal protein S6 kinase alpha-4 (Homo sapiens) (UniProt O75676).
-0.31

Tell me reported inhibition for CCn1c(-c2nonc2N)nc2cncc(C(=O)NCCNC)c21 , tested with Ribosomal protein S6 kinase alpha-4 (Homo sapiens) (UniProt O75676).
35.5

Tell me reported inhibition for CNC(=O)c1ncccc1Nc1nc(Nc2cc3c(cc2OC)CCCN3C(=O)CN(C)C)nc2[nH]ccc12 , tested with Ribosomal protein S6 kinase alpha-4 (Homo sapiens) (UniProt O75676).
2.93

Tell me reported inhibition for COc1ccc(-c2nn3ncccc3c2-c2ccnc(Nc3ccc(F)c(F)c3)n2)cc1 , tested with Ribosomal protein S6 kinase alpha-4 (Homo sapiens) (UniProt O75676).
3.37

Tell me reported inhibition for O=C(O[C@H]1CN[C@H](C#Cc2cc3ncnc(Nc4ccc5c(cnn5Cc5ccccc5)c4)c3s2)C1)N1CCOCC1 , tested with Ribosomal protein S6 kinase alpha-4 (Homo sapiens) (UniProt O75676).
0.14

###

biological target: Serine/threonine-protein kinase Chk1 (Homo sapiens); conditions: at 0.1 µM;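 further: reported figure is the mean percent inhibition of CHEK1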
Reported inhibition values are given for each entry in this list.
Give just the number in %; leave the unit off.

Use the examples below as a reference point.
> print(dat)
                                   compound  u  assay.value
1  COc1cccc(-n2ncc3c(N/N=C/c4ccc(C(=O)NCCN(C)C)cc4)ncnc32)c1  %         2.47
2  COc1cc2c(cc1Nc1nc(Nc3cccc(F)c3C(N)=O)c3cc[nH]c3n1)N(C(=O)CN1CCN(C(C)C)CC1)CC2  %        -0.51
3  COc1ccc2ncn(-c3cc(O[C@H](C)c4ccccc4C(F)(F)F)c(C(N)=O)s3)c2c1  %         1.46
4    CCn1c(-c2nonc2N)nc2cncc(C(=O)NCCNC)c21  %         2.97
5  CNC(=O)c1sc(-n2cnc3cc(OC)c(OC)cc32)cc1OCc1ccccc1C(F)(F)F  %          2.9

With those in mind, consider the next compound.
Can you share its inhibition? I mean this compound: N#Cc1ccc2c(-c3ccnc(NC4CC4)n3)c(-c3ccc(F)cc3)nn2c1
-1.96
